Provide the reported MIC of each item.
- Test system: C. albicans
- Type: cell-based, Candida albicans
- assay_setup: 24 h
- Experimental: Fungal strains used in this study are listed in Supplementary Table S1 and composition of growth media is given in Supplementary Table S2. […] The MIC of all protein and peptide variants was determined on C. albicans with broth microdilution assays in 96-well microtiter plates (Nunclon Delta, Thermo Fisher Scientific). […] The cell number was determined with a counting chamber (Bürker) and the cell number was adjusted to 10^4 mL^-1. […]
Positions of bridges follow the written chain, without caps; N, C: chain ends. Residues, ends and D or L forms follow the SMILES beside them. *: point of attachment. Acm = CC(=O)NC*
One number for each entry, in µM.

Some molecules with recorded MIC:
Lookup: Given the molecule CC(=O)N[C@@H](CCCCN)C(=O)N[C@@H](Cc1ccc(O)cc1)C(=O)N[C@H](C(=O)NCC(=O)N[C@@H](CCCCN)C(=O)N[C@@H](CS)C(=O)N[C@@H](Cc1ccc(O)cc1)C(=O)N[C@@H](CCCCN)C(=O)N[C@@H](CCCCN)C(=O)N[C@@H](CCCCN)C(=O)N[C@@H](CC(N)=O)C(=O)N[C@@H](CCC(=O)O)C(=O)N[C@@H](CS)C(=O)N[C@@H](CCCCN)C(N)=O)[C@@H](C)O [Pγ^var] (Ac-KYTGKCYKKKNECK-NH2) , what is its reported MIC?
Found: 2.5

Lookup: Do the same for CC(=O)NCSC[C@H](NC(=O)[C@H](CCC(=O)O)NC(=O)[C@H](CC(N)=O)NC(=O)[C@H](CCCCN)NC(=O)[C@H](CO)NC(=O)[C@H](CCCCN)NC(=O)[C@@H](NC(=O)[C@H](CSCNC(C)=O)NC(=O)[C@H](CCCCN)NC(=O)CNC(=O)[C@@H](NC(=O)[C@H](Cc1ccc(O)cc1)NC(=O)[C@H](CCCCN)NC(C)=O)[C@@H](C)O)[C@@H](C)O)C(=O)N[C@@H](CCCCN)C(N)=O [Pγ_prot] (Ac-KYTGKC(Acm)TKSKNEC(Acm)K-NH2) please
Found: 40

Lookup: Repeat with CC(=O)N[C@@H](CCCCN)C(=O)N[C@@H](Cc1ccc(O)cc1)C(=O)N[C@H](C(=O)NCC(=O)N[C@@H](CCCCN)C(=O)N[C@@H](CS)C(=O)N[C@H](C(=O)N[C@@H](CCCCN)C(=O)N[C@@H](CO)C(=O)N[C@@H](CCCCN)C(=O)N[C@@H](CC(N)=O)C(=O)N[C@@H](CCC(=O)O)C(=O)N[C@@H](CS)C(=O)N[C@@H](CCCCN)C(N)=O)[C@@H](C)O)[C@@H](C)O [Pγ] (Ac-KYTGKCTKSKNECK-NH2)
Found: 10.0

Would you kindly look at the next entry?
Lookup: Can you look up the measured MIC of CC(=O)N[C@@H](CCCCN)C(=O)N[C@@H](Cc1ccc(O)cc1)C(=O)N[C@H](C(=O)NCC(=O)N[C@@H](CCCCN)C(=O)N[C@H]1CSSC[C@@H](C(=O)N[C@@H](CCCCN)C(N)=O)NC(=O)[C@H](CCC(=O)O)NC(=O)[C@H](CC(N)=O)NC(=O)[C@H](CCCCN)NC(=O)[C@H](CO)NC(=O)[C@H](CCCCN)NC(=O)[C@H]([C@@H](C)O)NC1=O)[C@@H](C)O [Pγ_ox] (Ac-KYTGKCTKSKNECK-NH2; disulfide 6-13) for me?
Found: 40

Recorded values, source paper PMC6062912.
